- assay summary: chemical genetic growth profiling, strain panel (AID 1159580);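 also: tested at 20 µM; growth read once vehicle control cultures reached saturation at 30 °C; 1 = growth at the plate median or of vehicle wells; lower values mean less growth of the strain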
- experimental context: S. cerevisiae deletion strains, growth OD, locus YFL029C, strain CAK1, hits give low values
The whole screen tested about 5,500 compounds, of which about 2,000 (36%) were called active. Roughly 18% stayed inconclusive and do not appear here. This is one part of the list.
recorded metric: normalized growth
Form field (numeric): enter value without unit.

Examples with their reported normalized growth follow.
1. CC1(C)C/C(=N/Nc2ccc(C(F)(F)F)cc2)c2cc(C(C)(C)C)c(O)c(O)c2O1 :: 0.978
2. NC(=NC(=O)c1ccc(Cl)cc1)c1cccs1 :: 0.949
3. COCCOc1ccccc1NC(=S)SCCSC(=S)Nc1ccccc1OCCOC :: 0.981

Okay, now this molecule:
normalized growth for Cc1onc(-c2ccccc2Cl)c1-c1nc2ccccc2c(=O)o1 ? 0.956

* * *

- assay summary: chemical genetic growth profiling, strain panel (AID 1159580);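 also: tested at 20 µM; growth read once vehicle control cultures reached saturation at 30 °C; 1 = growth at the plate median or of vehicle wells; lower values mean less growth of the strain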
- experimental context: S. cerevisiae deletion strains, growth OD, locus YIL125W, strain kgd1, hits give low values
The campaign covered roughly 5,500 compounds. About 2,000 (36%) were called active. Inconclusive results (about 18%) are left out. This is one part of the list.
In this section we review reported normalized growth values for a set of compounds.
Form field (numeric): enter value without unit.

1. CN=C1CN(O)C(c2ccccc2)=c2cc(Cl)ccc2=N1 :: 0.978

normalized growth for CC[C@@H](C(=O)[C@@H](C)[C@@H](O)[C@H](C)[C@@H]1O[C@@H]([C@@H](CC)C(=O)O)CC[C@@H]1C)[C@H]1OC2(C=C[C@@H](O)[C@]3(CC[C@@](C)([C@H]4CC[C@](O)(CC)[C@H](C)O4)O3)O2)[C@H](C)C[C@@H]1C (some centres not stated) ? 0.785

normalized growth for CCOC(=O)C1=C[C@]2(CC)CCCN3CCc4c(n1c1ccccc41)[C@@H]32 ? 0.985

normalized growth for COc1c(C2COc3cc4c(cc3C2=O)CC(O)C(C)(C)O4)ccc2c1CCC(C)(C)O2 (configuration not stated) ? 1.01

normalized growth for NCCCCN=C(N)N ? 0.974

normalized growth for CC1=CC(=O)CC(C)(C)C1(O)/C=C/C(C)=C\C(=O)O (configuration not stated) ? 0.982

normalized growth for COS(C)(=O)=O ? 1.02

* * *

- assay summary: chemical genetic growth profiling, strain panel (AID 1159580);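 also: tested at 20 µM; growth read once vehicle control cultures reached saturation at 30 °C; 1 = growth at the plate median or of vehicle wells; lower values mean less growth of the strain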
- experimental context: S. cerevisiae deletion strains, growth OD, locus YMR277W, strain FCP1, hits give low values
Hit rate of the full screen: of about 5,500 compounds, about 2,000 (36%) were called active. Not shown: some 18% with an inconclusive outcome. The list shows a part of the results.
recorded metric: normalized growth
Form field (numeric): enter value without unit.

Examples with their reported normalized growth follow.
1) CN(C)/C=C/C(=O)c1ccc(C#Cc2ccccc2)cc1 :: 0.973
2) CC(=O)C(Sc1nc2ccccc2s1)C(C)=O :: 0.892

normalized growth for CSc1c(C#N)c(-c2ccc(Cl)cc2)nn1C(=O)c1ccccc1Cl ? 0.966

* * *

In this section we review reported normalized growth values for a set of molecules.
- assay summary: chemical genetic growth profiling, strain panel (AID 1159580);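 also: tested at 20 µM; growth read once vehicle control cultures reached saturation at 30 °C; 1 = growth at the plate median or of vehicle wells; lower values mean less growth of the strain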
- experimental context: S. cerevisiae deletion strains, growth OD, locus YOR136W, strain idh2, hits give low values
Hit rate of the full screen: of about 5,500 compounds, about 2,000 (36%) were called active. Inconclusive results (about 18%) are left out. The list shows a part of the results.
Form field (numeric): enter value without unit.

Examples with their reported normalized growth follow.
1. CN(Cc1cc(Br)cc(Br)c1N)C1CCCCC1 :: 1.01
2. CO[C@@H]1C[C@@H](C[C@H]2CC[C@H](C)[C@H]([C@@H](C)C(=O)O)O2)O[C@]2(O[C@](C)([C@H]3CC[C@@](C)(C4O[C@@H](C5O[C@@](O)(CO)[C@H](C)C[C@@H]5C)C[C@@H]4C)O3)C[C@H]2C)[C@@H]1C (stereo partly specified) :: 0.976
3. C/C=C/c1ccc(OC)cc1 :: 1.01
4. COc1ccc(/C=C/c2cc(O)cc(O[C@@H]3O[C@H](CO)[C@@H](O)[C@H](O)[C@H]3O)c2)cc1O :: 1.02
5. C=CCc1cc(OC)c2c(c1OC)OCO2 :: 0.974

Okay, now this molecule:
normalized growth for Oc1cc(O)cc(/C=C/c2ccccc2)c1 ? 0.984
